# Tested on: HRV16
# Measurement Protocol: HRV16 HELA EC50 (cytopathic effect in H1-HeLa cells)
# Format: cell-based
# Setup Conditions: 96 h, H1-HeLa cells, 33° C., read-out: HRV16 HELA EC50
Mark MET only when EC50 stays strictly below 9 µM. Values equal to the cut-off are NOT MET.

{"Molecule": "C[C@H](NP(=O)(OC[C@@]1(C#N)O[C@@H](c2ccc3c(N)ncnn23)[C@H](O)[C@@H]1O)Oc1ccccc1)C(=O)OCC1COC1 (stereo partly shown) [Example 49]", "Answer Label": "MET"}
{"Molecule": "CCOC(=O)C1(NP(=O)(OC[C@@]2(C#N)O[C@@H](c3ccc4c(N)ncnn34)[C@H](O)[C@@H]2O)Oc2ccccc2)CC1 (mixture of isomers) [Example 106]", "Answer Label": "NOT MET"}
{"Molecule": "COCCOc1ccc(OP(=O)(N[C@@H](C)C(=O)OC(C)C)OC[C@@]2(C#N)O[C@@H](c3ccc4c(N)ncnn34)[C@H](O)[C@@H]2O)cc1 (stereo partly shown) [Example 53]", "Answer Label": "NOT MET"}
{"Molecule": "C[C@H](N[P@@](=O)(OC[C@@]1(C#N)O[C@@H](c2ccc3c(N)ncnn23)[C@H](O)[C@@H]1O)Oc1ccccc1)C(=O)O[C@H]1CC[C@H](C(F)(F)F)CC1 (single isomer, unassigned) [Example 17]", "Answer Label": "MET"}
{"Molecule": "CCC(CC)COC(=O)[C@H](CCCCN)NP(=O)(OC[C@@]1(C#N)O[C@@H](c2ccc3c(N)ncnn23)[C@H](O)[C@@H]1O)Oc1ccccc1 (mixture of isomers) [Example 91]", "Answer Label": "NOT MET"}
{"Molecule": "C[C@H](NP(=O)(OC[C@@]1(C#N)O[C@@H](c2ccc3c(N)ncnn23)[C@H](O)[C@@H]1O)Oc1ccccc1)C(=O)OC1CCCCCC1 (stereo partly shown) [Example 134]", "Answer Label": "MET"}

---

# Test system: HRV16
# Measurement Protocol: HRV16 HELA EC50 (cytopathic effect in H1-HeLa cells)
# Format: cell-based
# Setup Conditions: 96 h, H1-HeLa cells, 33° C., read-out: HRV16 HELA EC50
pEC50: −log10 of the molar value.

{"Molecule": "CC(C)OC(=O)C[C@H](C)NP(=O)(OC[C@@]1(C#N)O[C@@H](c2ccc3c(N)ncnn23)[C@H](O)[C@@H]1O)Oc1ccccc1 (some centres unmarked) [Example 99]", "Censoring Sign": "<", "pEC50": 4.30}
{"Molecule": "CCOC(=O)[C@H](C)N[P@](=O)(OC[C@@]1(C#N)O[C@@H](c2ccc3c(N)ncnn23)[C@H](O)[C@@H]1O)Oc1ccccc1 [Example 29]", "Censoring Sign": "=", "pEC50": 6.17}
{"Molecule": "C[C@H](N[P@](=O)(OC[C@@]1(C#N)O[C@@H](c2ccc3c(N)ncnn23)[C@H](O)[C@@H]1O)Oc1ccccc1)C(=O)O[C@H]1CC[C@H](C(C)(C)C)CC1 (single isomer, unassigned) [Example 22]", "Censoring Sign": "=", "pEC50": 6.70}
{"Molecule": "CCC(CC)COC(=O)[C@H](Cc1ccccc1)NP(=O)(OC[C@@]1(C#N)O[C@@H](c2ccc3c(N)ncnn23)[C@H](O)[C@@H]1O)Oc1ccccc1 (some centres unmarked) [Example 81]", "Censoring Sign": "=", "pEC50": 5.47}
{"Molecule": "C[C@H](NP(=O)(OC[C@@]1(C#N)O[C@@H](c2ccc3c(N)ncnn23)[C@H](O)[C@@H]1O)Oc1ccccc1)C(=O)O[C@H]1CCCC[C@@H]1C (mixture of isomers) [Example 155]", "Censoring Sign": "=", "pEC50": 5.38}
{"Molecule": "CCCCCCCC(=O)Nc1ncnn2c([C@@H]3O[C@](C#N)(CO[P@@](=O)(N[C@@H](C)C(=O)OC4CCCCC4)Oc4ccccc4)[C@@H](O)[C@H]3O)ccc12 [Example 212]", "Censoring Sign": "=", "pEC50": 6.17}
{"Molecule": "CCC(CC)COC(=O)[C@H](CC(C)C)NP(=O)(OC[C@@]1(C#N)O[C@@H](c2ccc3c(N)ncnn23)[C@H](O)[C@@H]1O)Oc1ccccc1 (single isomer, unassigned) [Example 129]", "Censoring Sign": "=", "pEC50": 4.38}
{"Molecule": "CC(C)COC(=O)OCCNP(=O)(OC[C@@]1(C#N)O[C@@H](c2ccc3c(N)ncnn23)[C@H](O)[C@@H]1O)Oc1ccccc1 (some centres unmarked) [Example 177]", "Censoring Sign": "=", "pEC50": 5.94}
{"Molecule": "C[C@H](N[P@](=O)(OC[C@@]1(C#N)O[C@@H](c2ccc3c(N)ncnn23)[C@H](O)[C@@H]1O)Oc1ccccc1)C(=O)OC1CCCCC1 (single isomer, unassigned) [Example 6]", "Censoring Sign": "=", "pEC50": 6.64}
{"Molecule": "CCN1CCC(OC(=O)[C@H](C)NP(=O)(OC[C@@]2(C#N)O[C@@H](c3ccc4c(N)ncnn34)[C@H](O)[C@@H]2O)Oc2ccccc2)C(F)(F)C1 (some centres unmarked) [Example 32]", "Censoring Sign": "=", "pEC50": 5.00}
{"Molecule": "C[C@H](N[P@@](=O)(OC[C@@]1(C#N)O[C@@H](c2ccc3c(N)ncnn23)[C@H](O)[C@@H]1O)Oc1ccccc1)C(=O)OC1CCCCC1 (single isomer, unassigned) [Example 5]", "Censoring Sign": "=", "pEC50": 6.18}

Just for reference, patent US20230295201A1 is where these values come from.
